# Tested on: HS 578T breast
# assay-text: NCI-60 one-dose screen, 48 h (100 = growth as untreated, 0 = no growth, -100 = all killed)
# experimental-conditions: 10 µM unless noted
Compounds without any hit were thinned out: in the full panel of roughly 83,000, 20% have a hit.
readout-type: growth (%)
Answer format: numeric, % implied, no suffix.

Past entries and their recorded results:
# compound, growth / %
data = [
    ("CN1CCN(CCCNc2nccc(-c3c(-c4ccc(F)c(O)c4)nc4sccn34)n2)S1(=O)=O", 97.2),
    ("N#Cc1c(Nc2ccccc2)nn2cc(-c3nc4ccccc4s3)c(N)nc12", 64.3),
    ("CC(=O)N1N=C(c2cccc(Nc3ccncc3)c2)CC1c1ccc2c(c1)OCO2 (stereo not drawn)", 80),
]

Now, please, on to the next compound.
Need growth, item Clc1ccc(C2CC(c3cccc(Nc4ccncc4)c3)=NN2c2ccccc2)cc1 (stereo not drawn)
83.9
